Data origin: patent US5385917A

- target-or-test-system: Human steroid 5α-reductase (Homo sapiens)
- Construct: The suspension was used as the source of 5α-reductase
- protocol-description: Human steroid 5α-reductase inhibiting effect using human prostatic tissue
- applied-conditions: human prostate homogenate, pH 5.5, 50 nM [3H]testosterone, NADPH, 37° C., 10 min; Table 5
endpoint: pIC50
// pIC50: -log10(molar conc.)

Worked cases, answers included:
| compound | pIC50 |
| --- | --- |
| CC12CCC(C(=O)O)=CC1=CCCC2NC(=O)c1cccc(CC2CCCCC2)c1 (centres unmarked) [Example 35] | 6.80 |
| CC12CCC(C(=O)O)=CC1=CCCC2NC(=O)c1cccc(OC2CCCC2)c1 (centres unmarked) [Example 17] | 6.74 |
| Cc1c(OC2CCCCCC2)cccc1C(=O)NC1CCC=C2C=C(C(=O)O)CCC21C (centres unmarked) [Example 51] | 6.04 |
| C[C@@]12CCC(C(=O)O)=CC1=CCC[C@H]2NC(=O)c1cccc(OC2CCCCCC2)c1 [Example 45] | 6.21 |
| CC12CCC(C(=O)O)=CC1=CCCC2NC(=O)c1cccc(OCC2CCCCC2)c1 (centres unmarked) [Example 31] | 6.39 |

IN: Look up and state reported pIC50 for CC12CCC(C(=O)O)=CC1=CCCC2NC(=O)c1cccc(Oc2ccc3c(c2)CCCC3)c1 (centres unmarked) [Example 14]
OUT: 6.36

IN: Dear colleague, please send me the reported pIC50 for C[C@]12CCC(C(=O)O)=CC1=CCC[C@@H]2NC(=O)c1cccc(OC(C2CC2)C2CC2)c1 [Example 47] when you can.
OUT: 6.80

IN: Using known records, supply pIC50 for CC12CCC(C(=O)O)=CC1=CCCC2NC(=O)c1cccc(O[C@H]2CC[C@H](C(C)(C)C)CC2)c1 (some centres unmarked) [Example 23]
OUT: 6.52

---

- target-or-test-system: Human steroid 5α-reductase (Homo sapiens, UniProt P31213)
- Construct: The suspension was used as the source of 5α-reductase
- Sequence (P31213 1-254): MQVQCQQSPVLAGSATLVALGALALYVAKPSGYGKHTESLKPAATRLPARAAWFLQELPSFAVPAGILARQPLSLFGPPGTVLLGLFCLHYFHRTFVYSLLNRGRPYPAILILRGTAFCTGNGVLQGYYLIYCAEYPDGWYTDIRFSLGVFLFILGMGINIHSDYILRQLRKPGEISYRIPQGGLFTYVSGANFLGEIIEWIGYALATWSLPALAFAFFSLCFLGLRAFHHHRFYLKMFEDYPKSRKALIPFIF
- protocol-description: Human steroid 5α-reductase inhibiting effect using human prostatic tissue
- applied-conditions: human prostate homogenate, pH 5.5, 50 nM [3H]testosterone, NADPH, 37° C., 10 min; Table 5
endpoint: pIC50
In simple prose, pIC50 is minus the logarithm base ten of a concentration in moles per litre.

| compound | pIC50 |
| --- | --- |
| CC(C)c1ccc(Oc2cccc(C(=O)NC3CCC=C4C=C(C(=O)O)CCC43C)c2)cc1 (stereo not shown) [Example 4] | 6.09 |
| CC(C)c1ccc(Oc2cc(Br)cc(C(=O)NC3CCC=C4C=C(C(=O)O)CCC43C)c2)cc1 (stereo not shown) [Example 37] | 6.52 |
| CC(C)C1CCC(Oc2cccc(C(=O)NC3CCC=C4C=C(C(=O)O)CCC43C)c2)CC1 (stereo not shown) [Example 22] | 6.28 |

Okay, now this compound:
IN: Please look at this compound and report its pIC50: CC12CCC(C(=O)O)=CC1=CCCC2NC(=O)c1cccc(Oc2ccccc2)c1 (stereo not shown) [Example 2]
OUT: 6.08

---

- target-or-test-system: Human steroid 5α-reductase (Homo sapiens)
- Construct: The suspension was used as the source of 5α-reductase
- protocol-description: Human steroid 5α-reductase inhibiting effect using human prostatic tissue
- applied-conditions: human prostate homogenate, pH 5.5, 50 nM [3H]testosterone, NADPH, 37° C., 10 min; Table 5
Friendly reminder: IC50 below 300 nM is Fulfilled, at or above is Not fulfilled.

| molecule | label |
| --- | --- |
| Cc1ccc(Oc2cccc(C(=O)NC3CCC=C4C=C(C(=O)O)CCC43C)c2)cc1 (stereo not drawn) | Fulfilled |
| CC12CCC(C(=O)O)=CC1=CCCC2NC(=O)c1cccc(OC2CCCCCCC2)c1 (stereo not drawn) | Fulfilled |
| CC(C)c1cccc(Oc2cccc(C(=O)NC3CCC=C4C=C(C(=O)O)CCC43C)c2)c1 (stereo not drawn) | Not fulfilled |

IN: For this molecule, is IC50 lower than 300 nM? "C[C@]12CCC(C(=O)O)=CC1=CC[C@@H]2NC(=O)c1cccc(OC(C2CC2)C2CC2)c1"
OUT: Fulfilled

IN: Answer whether the molecule CC12CCC(C(=O)O)=CC1=CCCC2NC(=O)c1ccc2c(c1)OC1(CCCCC1)O2 (stereo not drawn) has IC50 strictly less than 300 nM
OUT: Not fulfilled
